# Tested on: SARS-CoV-2 gRNA
# Type: binding
# Test parameters: […]; LC-MS/MS; Probe I sample (first 199 lines of Table 2)
Observation type: target (unweighted spectral count of the protein in the RNP capture)
Give bare numbers.

Molecule	Numeric result
HNRNPD (protein, UniProt Q14103 2-355, looked up) Heterogeneous nuclear …: SEEQFGGDGAAAAATAAVGGSAGEQEGAMVAATQGAAAAAGSGAGTGGGTASGGTEGGSAESEGAKIDASKNEEDEGHSNSSPRHSEAATAQREEWKMFIGGLSWDTTKKDLKDYFSKFGEVVDCTLKLDPITGRSRGFGFVLFKESESVDKVMDQKEHKLNGKVIDPKRAKAMKTKEPVKKIFVGGLSPDTPEEKIREYFGGFGEVESIELPMDNKTNKRRGFCFITFKEEEPVKKIMEKKYHNVGLSKCEIKVAMSKEQYQQQQQWGSRGGFAGRARGRGGGPSQNWNQGYSNYWNQGYGNYGYNSQGYGGYGGYDYTGYNNYYGYGDYSNQQSGYGKVSRRGGHQNSYKPY	37

Need target (unweighted spectral count of the protein in the RNP capture) of HNRNPA0 (protein, UniProt Q13151 1-305, looked up) Heterogeneous nuclear …: MENSQLCKLFIGGLNVQTSESGLRGHFEAFGTLTDCVVVVNPQTKRSRCFGFVTYSNVEEADAAMAASPHAVDGNTVELKRAVSREDSARPGAHAKVKKLFVGGLKGDVAEGDLIEHFSQFGTVEKAEIIADKQSGKKRGFGFVYFQNHDAADKAAVVKFHPIQGHRVEVKKAVPKEDIYSGGGGGGSRSSRGGRGGRGRGGGRDQNGLSKGGGGGYNSYGGYGGGGGGGYNAYGGGGGGSSYGGSDYGNGFGGFGSYSQHQSSYGPMKSGGGGGGGGSSWGGRSNSGPYRGGYGGGGGYGGSSF , thanks.
12

Entry source: patent US20230407373A1
